- TARGET_DESC: ATP-citrate synthase (Homo sapiens)
- Sequence (P53396 whole entry): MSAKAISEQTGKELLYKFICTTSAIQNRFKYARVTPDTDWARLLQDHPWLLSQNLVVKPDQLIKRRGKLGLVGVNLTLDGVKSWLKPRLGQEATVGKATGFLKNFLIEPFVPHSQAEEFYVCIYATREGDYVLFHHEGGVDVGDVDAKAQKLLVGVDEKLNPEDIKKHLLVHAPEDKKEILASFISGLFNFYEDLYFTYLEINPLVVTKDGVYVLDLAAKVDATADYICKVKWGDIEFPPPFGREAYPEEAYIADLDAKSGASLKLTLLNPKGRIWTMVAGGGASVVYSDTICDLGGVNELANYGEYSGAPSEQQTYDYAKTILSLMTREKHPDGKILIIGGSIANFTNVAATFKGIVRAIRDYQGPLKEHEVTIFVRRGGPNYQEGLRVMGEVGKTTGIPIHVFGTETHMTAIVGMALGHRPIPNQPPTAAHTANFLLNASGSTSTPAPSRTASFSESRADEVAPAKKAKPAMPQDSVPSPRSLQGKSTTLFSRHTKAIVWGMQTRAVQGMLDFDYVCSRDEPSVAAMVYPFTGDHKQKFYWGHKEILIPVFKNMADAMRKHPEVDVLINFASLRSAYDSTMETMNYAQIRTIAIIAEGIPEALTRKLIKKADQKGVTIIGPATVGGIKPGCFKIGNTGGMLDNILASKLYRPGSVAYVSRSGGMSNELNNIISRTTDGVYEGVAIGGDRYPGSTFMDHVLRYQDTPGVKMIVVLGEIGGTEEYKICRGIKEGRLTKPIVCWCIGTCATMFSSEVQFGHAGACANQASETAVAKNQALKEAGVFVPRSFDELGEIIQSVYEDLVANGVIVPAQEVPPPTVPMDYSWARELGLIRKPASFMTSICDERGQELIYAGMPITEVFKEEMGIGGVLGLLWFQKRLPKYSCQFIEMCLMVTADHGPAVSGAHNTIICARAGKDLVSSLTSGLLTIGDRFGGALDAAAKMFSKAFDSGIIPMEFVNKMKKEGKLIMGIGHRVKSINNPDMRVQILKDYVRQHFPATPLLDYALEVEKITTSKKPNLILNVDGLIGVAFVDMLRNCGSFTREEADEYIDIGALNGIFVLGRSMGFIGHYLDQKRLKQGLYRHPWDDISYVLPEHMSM
- TEST: Inhibition of ACL (unknown origin) incubated for 30 mins in presence of ATP by ADP-Glo kinase assay
Let's look at some compounds and their measured IC50.
Number first, unit second: that is the form wanted.

Look over these answered cases.
RECORD_SMILES: C[C@H](Cc1cc(C(=O)O)co1)[C@H]1CC[C@@]2(C)C3=CC[C@H]4C(C)(C)[C@H](O)CC[C@]4(C)[C@@H]3CC[C@]12C
REPORTED_PROPERTY: IC50
TEST_VALUE: 8.8 µM
//
RECORD_SMILES: CC(=O)O[C@@H]1CC[C@]2(C)[C@@H]3CC[C@]4(C)C(=CC[C@@]4(C)[C@H](C)Cc4cc(C(=O)O)co4)C3=CC[C@H]2C1(C)C
REPORTED_PROPERTY: IC50
TEST_VALUE: 5.7 µM
//
RECORD_SMILES: C/C(=C\CC[C@@H](C)[C@H]1CC[C@@]2(C)[C@@H]3CC[C@H]4C(C)(C)[C@H](O)CC[C@@]45C[C@@]35CC[C@]12C)C(=O)O
REPORTED_PROPERTY: IC50
TEST_VALUE: 7.6 µM
//
RECORD_SMILES: C[C@H](Cc1cc(C(=O)O)co1)[C@]1(C)CC[C@]2(C)C1=CC[C@@]13C[C@@]14CC[C@@H](O)C(C)(C)[C@@H]4CC[C@H]32
REPORTED_PROPERTY: IC50
TEST_VALUE: 6.6 µM

Shifting focus to the compound that follows.
Respond only with IC50 recorded for C[C@H](CC/C=C(\CO)C(=O)O)[C@H]1CC[C@@]2(C)[C@@H]3CC[C@H]4C(C)(C)[C@H](O)CC[C@@]45C[C@@]35CC[C@]12C
11.4 µM
